- targetOfAssay: T1, human CD3 epsilon (Acro Cat #CDE-H5223) (human, UniProt P07766 23-126)
- T1 construct: Bought recombinant protein; also called rhCD3E
- T1 sequence (P07766 23-126 limits assumed): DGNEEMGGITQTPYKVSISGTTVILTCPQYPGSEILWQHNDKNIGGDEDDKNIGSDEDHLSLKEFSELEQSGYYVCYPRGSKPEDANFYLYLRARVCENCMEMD
- assayNotes: SPR (Biacore), antibody captured, human CD3 epsilon analyte
recordedMetric: koff (s⁻¹)
The figure you give is taken to be in s⁻¹; do not add the unit.

Fill blank: measured koff of the binder 2037-B10_Hc-N30D (antibody, human IgG1, lambda, V domains shown, human IgG1, lambda; also called SRP 2037 N30D; 2037-B10_VH-N30D) VH: EVQLVESGGGLVKPGGSLRLSCAASGFTFDKYAMNWVRQAPGKGLEWVARIRTKYNNYATYYADSVKDRFTISRDDSKNTAYLQMNSLKTEDTAVYYCVRHGNFGNSYISYWAYWGQGTPVTVSS VL: QTVVTQEPSLTVSPGGTVTLTCGSSTGAVTSGYYPNWLQQKPGQAPRGLIGGTKFLAPGTPARFSGSLLGGKAALTLSGVQPEDEAEYYCALWYSNRWVFGGGTQLTVTG is ____.
0.000189
